# test-summary: qHTS of pediatric cancer cell lines to identify multiple opportunities for drug repurposing: Primary screen for Rh41 cells (AID 1347108);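 further: luminescence drop marks cytotoxic hits; nearly all actives have a fitted effect of over 70% in size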
# condition: Rh41 rhabdomyosarcoma viability, CellTiter-Glo luminescence, 48 h; series mostly up to 46 µM
Inconclusive results are not listed. Active and inactive are the calls of the source. The call rests on the fitted dose curve; in most records, active means well fitted cell-killing curve with a large enough effect; inconclusive means small, poorly fitted or top-dose-only effect; inactive means no such curve, though single readings can be large or run the other way.
readout-type: outcome

Worked examples follow.
CNC(C)(C)Cc1ccccc1 :: inactive
c1ccc(N2CCNCC2)cc1 :: inactive
NNc1ccccc1 :: inactive
CC(C(=O)c1ccccc1)N(C)C (stereo not drawn) :: inactive

In: // query outcome value for entry C#CC(O)(C=CCl)CC (stereo not drawn)
Out: inactive

In: // query outcome value for entry C#C[C@]1(O)CC[C@H]2[C@@H]3CCC4=CC(=O)CC[C@]4(C)[C@H]3CC[C@@]21C
Out: inactive

In: // query outcome value for entry CCCOC(=O)c1cncn1C(C)c1ccccc1 (stereo not drawn)
Out: inactive

In: // query outcome value for entry CC1(C)C(C=C(Cl)Cl)C1C(=O)OC(C#N)c1cccc(Oc2ccccc2)c1 (stereo not drawn)
Out: inactive

In: // query outcome value for entry C[C@H](N)C(=O)c1ccccc1
Out: inactive

In: // query outcome value for entry O=C1CN=C(c2ccccc2)c2cc([N+](=O)[O-])ccc2N1
Out: inactive

In: // query outcome value for entry COc1cc(CC(C)N)cc(OC)c1OC (stereo not drawn)
Out: inactive

In: // query outcome value for entry O=c1[nH]oc2c1CCNC2
Out: inactive

In: // query outcome value for entry O=C1OC(c2ccc(O)c(S(=O)(=O)O)c2)(c2ccc(O)c(S(=O)(=O)O)c2)c2c(Br)c(Br)c(Br)c(Br)c21
Out: inactive

FYI, the data here is from PubChem BioAssay (NCATS).
